Assay: Half life of the compound in presence of chymotrypsin at 20 uM by HPLC analysis
Format: physicochemical
Bridge positions count the residues as written; N and C are the ends. Square brackets hold non-standard residues; d marks the D form. Peptide text beside a SMILES is read from it. S8 = C=CCCCCCC[C@](C)(N)C(=O)O; S5 = C=CCCC[C@](C)(N)C(=O)O
quantity name: half-life at 20 µM

1) CC[C@H](C)[C@@H]1NC(=O)[C@H]([C@@H](C)CC)NC(=O)[C@@](C)(NC(=O)[C@H](CO)NC(=O)CNC(=O)[C@H](CO)NC(=O)[C@@H]2CCCN2C(C)=O)CCCCCC/C=C/CCC[C@@](C)(C(=O)N[C@@H](CCC(=O)O)C(=O)N[C@@H](CC(=O)O)C(N)=O)NC(=O)[C@H](Cc2ccccc2)NC(=O)[C@H](CC(C)C)NC(=O)[C@H](CC(N)=O)NC(=O)[C@H](CO)NC1=O (Ac-PSGS[S8]IISNLF[S5]ED-NH2; staple (E) 5-12) | > 3.33 h

Then there is this compound:
Which half-life at 20 µM reading was recorded for the compound CC[C@H](C)[C@@H]1NC(=O)[C@@](C)(NC(=O)[C@H](CC(N)=O)NC(=O)[C@H](CO)NC(=O)CNC(=O)[C@H](CO)NC(=O)[C@@H]2CCCN2C(C)=O)CCC/C=C\CCC[C@@](C)(C(=O)N[C@@H](Cc2ccccc2)C(=O)N[C@@H](CCCCN)C(=O)N[C@@H](CCC(=O)O)C(=O)N[C@@H](CC(=O)O)C(N)=O)NC(=O)[C@H](CC(N)=O)NC(=O)[C@H](CO)NC1=O (Ac-PSGSN[S5]ISN[S5]FKED-NH2; staple (Z) 6-10) ?
> 3.33 h

----------
Reported EC50 values follow for various molecules
Assay: Inhibition of HCV JFH-1 envelope glycoprotein E2 interaction to cell surface protein CD81 in human Huh 7.5.1 cells after 2 days by firefly luciferase based luminescene assay
Set-up: species or system Hepatitis C virus JFH-1
Bridge positions count the residues as written; N and C are the ends. Square brackets hold non-standard residues; d marks the D form. Peptide text beside a SMILES is read from it. R8 = C=CCCCCCC[C@@](C)(N)C(=O)O; S8 = C=CCCCCCC[C@](C)(N)C(=O)O; R5 = C=CCCC[C@@](C)(N)C(=O)O; S5 = C=CCCC[C@](C)(N)C(=O)O
State just the number; it will be interpreted in µM.

1) CC[C@H](C)[C@H](NC(=O)[C@H](CC(N)=O)NC(=O)[C@H](CO)NC(=O)CNC(=O)[C@H](CO)NC(=O)[C@@H]1CCCN1C(C)=O)C(=O)N[C@H](C(=O)N[C@@]1(C)CCC/C=C\CCC[C@@](C)(C(=O)N[C@@H](CCC(=O)O)C(=O)N[C@@H](CC(=O)O)C(N)=O)NC(=O)[C@H](Cc2ccccc2)NC(=O)[C@H](CC(C)C)NC(=O)[C@H](CC(N)=O)NC1=O)[C@@H](C)CC (Ac-PSGSNII[S5]NLF[S5]ED-NH2; staple (Z) 8-12) | 313
2) CC[C@H](C)[C@@H]1NC(=O)[C@H]([C@@H](C)CC)NC(=O)[C@@](C)(NC(=O)[C@H](CO)NC(=O)CNC(=O)[C@H](CO)NC(=O)[C@@H]2CCCN2C(C)=O)CCCCCC/C=C/CCC[C@@](C)(C(=O)N[C@@H](CCC(=O)O)C(=O)N[C@@H](CC(=O)O)C(N)=O)NC(=O)[C@H](Cc2ccccc2)NC(=O)[C@H](CC(C)C)NC(=O)[C@H](CC(N)=O)NC(=O)[C@H](CO)NC1=O (Ac-PSGS[S8]IISNLF[S5]ED-NH2; staple (E) 5-12) | 78

Which EC50 reading was recorded for the molecule CC[C@H](C)[C@@H]1NC(=O)[C@H](CC(N)=O)NC(=O)[C@@](C)(NC(=O)CNC(=O)[C@H](CO)NC(=O)[C@@H]2CCCN2C(C)=O)CCC/C=C\CCC[C@@](C)(C(=O)N[C@@H](CC(N)=O)C(=O)N[C@@H](CC(C)C)C(=O)N[C@@H](Cc2ccccc2)C(=O)N[C@@H](CCCCN)C(=O)N[C@@H](CCC(=O)O)C(=O)N[C@@H](CC(=O)O)C(N)=O)NC(=O)[C@H]([C@@H](C)CC)NC1=O (Ac-PSG[S5]NII[S5]NLFKED-NH2; staple (Z) 4-8) ?
21

Which EC50 reading was recorded for the molecule CC[C@H](C)[C@@H]1NC(=O)[C@H](CC(N)=O)NC(=O)[C@H](CO)NC(=O)[C@](C)(NC(=O)[C@H](CO)NC(=O)[C@@H]2CCCN2C(C)=O)CCCCCC/C=C\CCC[C@](C)(C(=O)N[C@@H](Cc2ccccc2)C(=O)N[C@@H](CCCCN)C(=O)N[C@@H](CCC(=O)O)C(=O)N[C@@H](CC(=O)O)C(N)=O)NC(=O)[C@H](CC(N)=O)NC(=O)[C@H](CO)NC(=O)[C@H]([C@@H](C)CC)NC1=O (Ac-PS[R8]SNIISN[R5]FKED-NH2; staple (Z) 3-10) ?
17

Which EC50 reading was recorded for the molecule CC[C@H](C)[C@@H]1NC(=O)[C@@](C)(NC(=O)[C@H](CC(N)=O)NC(=O)[C@H](CO)NC(=O)CNC(=O)[C@H](CO)NC(=O)[C@@H]2CCCN2C(C)=O)CCC/C=C\CCC[C@@](C)(C(=O)N[C@@H](Cc2ccccc2)C(=O)N[C@@H](CCCCN)C(=O)N[C@@H](CCC(=O)O)C(=O)N[C@@H](CC(=O)O)C(N)=O)NC(=O)[C@H](CC(N)=O)NC(=O)[C@H](CO)NC1=O (Ac-PSGSN[S5]ISN[S5]FKED-NH2; staple (Z) 6-10) ?
200
